Assay: solvent given as SMILES
Conditions: in CC(C)=O
absorption maximum values for the molecules below.
Express your answer in nm, writing the number without its unit.

Worked examples, 3 molecules total:
Smiles String	Quantity	Result Number
CCN(CC)c1ccc2cc(/C=C/C3=C4CC/C(=C\c5cc6ccc(N(CC)CC)cc6oc5=O)C4=[O+][B-](F)(F)O3)c(=O)oc2c1	absorption maximum	653
C(=C\c1nc2ccccc2[nH]1)/c1ccc(/C=C/c2nc3ccccc3[nH]2)cc1	absorption maximum	395
O=C1/C(=C/C=C/c2cc3c4c(c2)CCCN4CCC3)CC/C1=C\C=C\c1cc2c3c(c1)CCCN3CCC2	absorption maximum	515

[ask] Please look up its absorption maximum: CC(=O)Nc1ccc(S(=O)(=O)O)c(/N=N/c2c(O)c3ccccc3n(C)c2=O)c1
[reply] 425

[ask] Ok, now CCC1(CC)c2cc(B(c3c(C)cc(C)cc3C)c3c(C)cc(C)cc3C)ccc2-c2ccc(N(c3ccccc3)c3ccccc3)cc21
[reply] 398

[ask] Try this molecule too: CON(OC)c1cc2c3cc(-c4c(C)cc(C)cc4C)cc4c5cc(-c6c(C)cc(C)cc6C)cc6c7cc(B(c8c(C)cc(C)cc8C)c8c(C)cc(C)cc8C)cc8c9cc(-c%10c(C)cc(C)cc%10C)cc%10c%11cc(-c%12c(C)cc(C)cc%12C)cc%12c(c1)c2c1c(c43)c(c65)c(c78)c(c9%10)c1c%11%12
[reply] 445

[ask] // next record O=[N+]([O-])c1ccc(NCCNCc2c3ccccc3cc3ccccc23)c([N+](=O)[O-])c1
[reply] 364

---

Test: solvent given as SMILES
Details: in CC(C)(C)O
Quantity: absorption maximum (nm)
Reply with just the number (in nm).

Consider the worked cases shown below.
                              smiles_string  units_text  result_number
0      O=C1Nc2ccccc2/C1=C/C(=O)c1ccc(Cl)cc1          nm            339
1  COCCOCCOCCOCCOc1ccc(OCCOCCOCCOCCOC)c(C=O)c1          nm            350
2    O=C1Nc2ccccc2/C1=C/C(=O)c1ccc(Cl)cc1Cl          nm            339
3  COCCOCCOCCOc1cc(C=O)c(OCCOCCOCCOC)cc1C=O          nm            393
4                       COc1cc(C(=O)O)ccc1O          nm            291

// switching to the query compound
[ask] What value of measured absorption maximum is listed for Cc1ccc(/C=N/c2cc(C(C)C)c(O)cc2C)cc1 ?
[reply] 346

---

Assay: solvent given as SMILES
Settings: in CCCO
Quantity: absorption maximum
Put your answer as a value accompanied by its unit after it.

Some solved entries appear below for comparison.
>>> print(df.to_string())
                              smiles_string  result
0                  Cc1ccc2occ(CC(=O)NN)c2c1  281 nm
1                 COc1ccc2c(CC(=O)NN)coc2c1  289 nm
2  Cc1cnc(NC(=O)C2=C(O)c3ccccc3S(=O)(=O)N2C)s1  350 nm
3              CCOC(=O)/C=C/c1ccc(N(C)C)cc1  364 nm

[ask] // returns reported absorption maximum for input O=C1/C(=C/C=C/c2cc3c4c(c2)CCCN4CCC3)CC/C1=C\C=C\c1cc2c3c(c1)CCCN3CCC2
[reply] 541 nm

[ask] Same lookup for COc1ccc2c(=O)c3c([nH]c2c1)-c1cc(Cl)ccc1NC3(C)C , please.
[reply] 426 nm

---

Experiment: solvent given as SMILES
Settings: in CN(C)C=O
Rule: absorption maximum of 400 nm or more gives met; anything lower gives not met.

These recorded examples may help you get a feel for the data.
                              smiles_string  classification
0  CN(C)c1ccc(C#Cc2ccc(C#Cc3ccc(C#Cc4ccccc4C#N)cc3C#N)cc2C#N)cc1             met
1  CCCCCCC(CCCCCC)N1C(=O)c2cccc3c(-c4ccc(C#N)cc4)ccc(c23)C1=O         not met
2  O=C1NC(=O)C(c2c[nH]c3ccccc23)=C1c1c[nH]c2ccccc12             met
3    O=C1Nc2ccccc2/C1=C/C(=O)c1ccc(Cl)cc1Cl         not met
4            O=C(O)c1ccc2ccc3cccc4ccc1c2c34         not met
5  COc1cc2c(cc1OC)C1=C3C(=O)N4C=Cc5cc(OC)c(OC)cc5C4=C3C(=O)N1C=C2             met

Shifting focus to the compound that follows.
[ask] State whether the measured absorption maximum reaches 400 nm, counting equality as reaching it, for CCC1=C(C)C2=C(c3c(C)cc(C)nc3-c3cccs3)c3c(C)c(CC)c(C)n3[B-](F)(F)[N+]2=C1C
[reply] met

---

Assay: solvent given as SMILES
Conditions: in OCC(O)CO
Listed next: entries and their corresponding absorption maximum.
The reply should contain only the number, in nm.

These recorded examples may help you get a feel for the data.
>>> print(df.to_string())
                              smiles_string  result_number
0         c1csc(-c2cnc(-c3cccs3)c3nonc23)c1            471
1  C[n+]1ccc(/C=C/c2ccc(N(c3ccccc3)c3ccc(/C=C/c4cc[n+](C)cc4)cc3)cc2)cc1            496
2              O=C1NC(=O)/C(=C\c2ccccc2O)S1            364
3  CCN(CC)c1ccc2cc(/C=C/c3cccc[n+]3CCCS(=O)(=O)[O-])c(=O)oc2c1            496
4              CCC(=O)c1ccc2cc(N(C)C)ccc2c1            370

[ask] Recorded absorption maximum for COc1c2ccccc2c(-c2ccccc2)c2ccccc12 , please?
[reply] 378

---

Listing of entries alongside the reported absorption maximum.
Test: solvent given as SMILES
Settings: in CO
The response must be a number in nm with no trailing unit.

>>> print(df.to_string())
                              smiles_string            quantity  result_number
0  O=C1/C(=C/C=C/c2cc3c4c(c2)CCCN4CCC3)CC/C1=C\C=C\c1cc2c3c(c1)CCCN3CCC2  absorption maximum            523
1  CN1/C(=C/C=C(/C=C/c2sc3ccccc3[n+]2C)c2cccc(C(F)(F)F)c2)Sc2ccccc21  absorption maximum            642
2   Cc1ccc(/C=C(\c2ccccc2)c2nc3ccccc3s2)cc1  absorption maximum            345
3  CC1=CC(/C=C/c2ccc(OCCCN=[N+]=[N-])cc2)=[N+]2C1=C(c1ccc(N3CCCCC3)cc1)c1c(C)cc(C)n1[B-]2(F)F  absorption maximum            570
4  CCN(CC)c1ccc2c(C#N)c(/C=C(\C#N)c3nc4ccccc4s3)c(=O)oc2c1  absorption maximum            591
5  CCCCCCCCCCCCCCCC[n+]1ccc(/C=C/c2ccc(N(C)C)cc2)cc1  absorption maximum          480.2
6       CC1=CC(C)=[N+]2C1=Cc1cccn1[B-]2(F)F  absorption maximum            493
7          Cc1cc(C)cc(NC(=O)c2sc(Br)nc2C)c1  absorption maximum          271.5

[ask] What value of absorption maximum has been reported for the following compound? CNCCCN1c2ccccc2CCc2ccccc21
[reply] 276

[ask] // next record CC(=O)Nc1cc2ccc3cccc4ccc(c1)c2c34
[reply] 334

---

Assay: solvent given as SMILES
Conditions: in CC#N
Quantity: absorption maximum (nm)
# unit: nm | format: bare number

Sample answers from the record:
In [3]: df
Out[3]:
                              smiles_string  result_number
0                 Nc1cccc2c1C(=O)c1ccccc1-2            420
1  O=C1/C(=C/C=C/c2cc3c4c(c2)CCCN4CCC3)CC/C1=C\C=C\c1cc2c3c(c1)CCCN3CCC2            510
2  CCN(CC)c1ccc2cc(/C=C(\C#N)c3nc4ccccc4o3)c(=O)oc2c1            510

[ask] Entry under review: Cc1ccc(S(=O)(=O)Nc2c(/C=C/c3ccccc3)sc(-c3ccc(N(C)C)cc3)c2-c2ccsc2)cc1 . Reported absorption maximum?
[reply] 465

[ask] Moving on to CCC1=C(C)C2=C(c3c(C)cc(C)nc3-c3cccs3)c3c(C)c(CC)c(C)n3[B-](F)(F)[N+]2=C1C
[reply] 530

[ask] And for COc1ccc2c(=O)c3c([nH]c2c1)-c1cc(Cl)ccc1NC3(C)C ?
[reply] 421

[ask] Another compound to look at: CN(C)c1ccc(C2=Cc3cc(Cl)nc[n+]3[B-](F)(F)O2)cc1
[reply] 452

[ask] Note, next up: COc1ccc(-c2cc(-c3ccc(C)cc3)c(C#N)c(OC)n2)cc1
[reply] 338

[ask] Would you mind doing COc1ccc(-c2cc3c(s2)c(C(=O)c2ccccc2)cc(=O)n3Cc2ccccc2)cc1 as well?
[reply] 406

Provenance of the data: the Deep4Chem optical property database
